Target: hSTING (Homo sapiens)
Sequence (Q86WV6 whole entry H232R): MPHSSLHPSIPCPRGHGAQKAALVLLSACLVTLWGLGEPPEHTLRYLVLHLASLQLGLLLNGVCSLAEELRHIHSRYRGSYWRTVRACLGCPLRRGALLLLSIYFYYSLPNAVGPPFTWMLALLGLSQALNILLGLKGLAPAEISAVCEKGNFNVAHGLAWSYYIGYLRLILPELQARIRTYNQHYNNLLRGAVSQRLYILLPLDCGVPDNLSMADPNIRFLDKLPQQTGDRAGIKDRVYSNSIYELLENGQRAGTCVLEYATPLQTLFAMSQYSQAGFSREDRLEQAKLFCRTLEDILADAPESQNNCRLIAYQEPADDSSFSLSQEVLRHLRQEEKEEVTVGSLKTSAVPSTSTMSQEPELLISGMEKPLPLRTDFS
Assay: Inhibition test of intracellular human STING (hSTING) pathways using reporter cells (HEK-Blue ISG, SEAP reporter)
Details: stimulation with Compound 3 (10 nM), 21 hours, read-out: Inhibitory Activity on hSTING
pIC50: −log10 of the molar value. Structures can show the parent of a compound that is named as a salt.
Reported pIC50 by item:

compound: CNn1c(Nc2c[nH]c3cc(F)c(F)cc23)nc2cc(C(F)(F)F)c(F)cc21 [Example 10]
pIC50: 6.00 to 7.00

compound: Cl.[2H]C([2H])([2H])Nn1c(Nc2c[nH]c3ccc(Cl)cc23)nc2cc(C(F)(F)F)ccc21 [Example 25]
pIC50: > 7.00

compound: CNn1c(Nc2c[nH]c3ccc(C)cc23)nc2cc(C(F)(F)F)c(F)cc21 [Example 8]
pIC50: > 7.00

compound: CNn1c(Nc2c[nH]c3cc(F)c(C)cc23)nc2cc(C(F)(F)F)ccc21 [Example 18]
pIC50: > 7.00

compound: CNn1c(Nc2c[nH]c3ccc(F)c(F)c23)nc2cc(C(F)(F)F)ccc21 [Example 3, Hydrochloride]
pIC50: > 7.00

compound: CCCNn1c(Nc2c[nH]c3ccc(Cl)cc23)nc2cc(C(F)(F)F)ccc21 [Example 24]
pIC50: > 7.00

compound: Cc1ccc2[nH]cc(Nc3nc4cc(C(F)(F)F)c(F)cc4n3N)c2c1 [Example 9, hydrochloride]
pIC50: 6.00 to 7.00

compound: CCNn1c(Nc2c[nH]c3c(F)cc(F)cc23)nc2cc(C(F)(F)F)cc(F)c21 [Example 22, hydrochloride]
pIC50: > 7.00

---

Reported pIC50 by item:
Target: hSTING (Homo sapiens)
Assay: Inhibition test of intracellular human STING (hSTING) pathways using reporter cells (HEK-Blue ISG, SEAP reporter)
Conditions: stimulation with Compound 3 (10 nM), 21 hours, read-out: Inhibitory Activity on hSTING
pIC50: −log10 of the molar value. Where a name gives a salt, the structure may show the parent alone.

molecule: CCNn1c(Nc2c[nH]c3cc(F)c(F)cc23)nc2cc(C(F)(F)F)ccc21
pIC50: > 7.00
--
molecule: CNn1c(Nc2c[nH]c3ncc(Cl)cc23)nc2cc(C(F)(F)F)ccc21 [Example 27, hydrochloride]
pIC50: 6.00 to 7.00
--
molecule: CCNn1c(Nc2c[nH]c3ccc(Cl)cc23)nc2cc(C(F)(F)F)cc(F)c21
pIC50: > 7.00
--
molecule: Nn1c(Nc2c[nH]c3ccc(F)c(F)c23)nc2cc(C(F)(F)F)ccc21 [Example 11, hydrochloride]
pIC50: 6.00 to 7.00

---

Molecular target: STING (Homo sapiens, UniProt Q86WV6, G230A/H232R/R293Q/R71H)
Sequence (Q86WV6 whole entry R71H/G230A/H232R/R293Q): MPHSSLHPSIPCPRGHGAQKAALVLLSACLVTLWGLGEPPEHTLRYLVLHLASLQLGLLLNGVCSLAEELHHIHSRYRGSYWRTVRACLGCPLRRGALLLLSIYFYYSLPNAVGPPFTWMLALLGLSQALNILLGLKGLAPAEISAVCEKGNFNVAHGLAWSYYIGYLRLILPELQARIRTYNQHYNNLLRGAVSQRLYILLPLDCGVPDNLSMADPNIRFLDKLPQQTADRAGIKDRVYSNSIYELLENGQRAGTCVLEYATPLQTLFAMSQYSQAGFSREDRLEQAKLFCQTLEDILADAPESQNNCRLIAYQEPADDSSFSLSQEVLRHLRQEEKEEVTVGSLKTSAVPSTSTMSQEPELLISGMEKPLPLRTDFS
Assay: Inhibition test of human IFN-β production by cGAMP stimulation in THP-1 cells
Conditions: PMA-treated THP-1 cells, 2'3'-cGAMP transfection, 18 hours, ELISA of culture supernatant; read-out: Inhibitory effect on the IFN-β production
From the text: The human monocytic cell line THP-1 cells were used to measure the amount of IFN-β produced when stimulated with the endogenous ligand cGAMP, thereby evaluating the inhibitory activity of the test compounds on STING activation. […]
Where a name gives a salt, the structure may show the parent alone.
readout-type: IC50

molecule: Cl.[2H]C([2H])([2H])Nn1c(Nc2c[nH]c3ccc(Cl)cc23)nc2cc(C(F)(F)F)ccc21
reported-result: < 10 nM
//
molecule: CNn1c(Nc2c[nH]c3ccc(F)c(F)c23)nc2cc(C(F)(F)F)ccc21 [Example 3, Hydrochloride]
reported-result: < 10 nM
//
molecule: CCNn1c(Nc2c[nH]c3c(F)cc(F)cc23)nc2cc(C(F)(F)F)ccc21
reported-result: < 10 nM
//
molecule: CCCNn1c(Nc2c[nH]c3ccc(Cl)cc23)nc2cc(C(F)(F)F)ccc21
reported-result: 10 to 100 nM
//
molecule: CCNn1c(Nc2c[nH]c3cc(F)c(F)cc23)nc2cc(C(F)(F)F)cc(F)c21 [Example 23, hydrochloride]
reported-result: 10 to 100 nM
//
molecule: CCNn1c(Nc2c[nH]c3ccc(Cl)cc23)nc2cc(C(F)(F)F)cc(F)c21
reported-result: < 10 nM
//
molecule: Nn1c(Nc2c[nH]c3ccc(Cl)cc23)nc2cc(C(F)(F)F)ccc21 [Example 1, Hydrochloride]
reported-result: < 10 nM
//
molecule: CCNn1c(Nc2c[nH]c3cc(F)c(F)cc23)nc2cc(C(F)(F)F)ccc21
reported-result: < 10 nM
//
molecule: CCNn1c(Nc2c[nH]c3ccc(F)cc23)nc2cc(C(F)(F)F)ccc21
reported-result: 10 to 100 nM
//
molecule: CNn1c(Nc2c[nH]c3cc(F)c(C)cc23)nc2cc(C(F)(F)F)ccc21
reported-result: < 10 nM
//
molecule: CNn1c(Nc2c[nH]c3ccc(F)cc23)nc2cc(C(F)(F)F)ccc21 [Example 16, hydrochloride]
reported-result: < 10 nM
//
molecule: CNn1c(Nc2c[nH]c3c(F)cc(F)cc23)nc2cc(C(F)(F)F)ccc21
reported-result: < 10 nM
//
molecule: Nn1c(Nc2c[nH]c3cc(F)c(F)cc23)nc2cc(C(F)(F)F)ccc21 [Example 2, Formate]
reported-result: < 10 nM
//
molecule: Nn1c(Nc2c[nH]c3ccc(F)c(F)c23)nc2cc(C(F)(F)F)ccc21 [Example 11, hydrochloride]
reported-result: 10 to 100 nM
//
molecule: CNn1c(Nc2c[nH]c3ccc(F)c(F)c23)nc2cc(C(F)(F)F)c(F)cc21 [Example 12, hydrochloride]
reported-result: > 1000 nM
//
molecule: CNn1c(Nc2c[nH]c3cc(F)c(F)cc23)nc2cc(C(F)(F)F)ccc21
reported-result: < 10 nM
